Tested on: MRSA clinical isolate from Liberec Regional Hospital (MRSA (L))
PROTOCOL NOTES: microbe, parasite or virus in culture
Assay type: cell-based
SETTINGS: clinical isolate Liberec; Bioscreen C; at least three times in duplicates
No end group written: not given here.
Each entry below carries its reported Antimicrobial Activity MIC, MRSA a.
Please respond with the number in µM and leave the unit unwritten.

Examples with their reported Antimicrobial Activity MIC, MRSA a follow.
> print(dat)
               substance  observed.result
1   KWMKLLKKILK-NH2 [IX]              8.0
2  GKWVKLLKKILK-NH2 [VI]              5.0
3   GKWLKLLKKILK-NH2 [V]              8.0

Query GKWMKLLKKILK-NH2 [I] yields Antimicrobial Activity MIC, MRSA a of 3.6

For reference, reported Antimicrobial Activity MIC, MRSA a for GKWMKMLKKILK-NH2 [IV] stands at 10.0

Antimicrobial Activity MIC, MRSA a reported for this substance GKWKKLLKKILK-NH2 [III] : 11.5
